Could you please report measured MIC for the items listed next?
# System: Salmonella typhimurium
# run_description: Antimicrobial activity against Salmonella typhimurium after 12 to 18 hrs by micro-well dilution method
# Assay type: functional, Salmonella enterica subsp. enterica serovar Typhimurium
# test_settings: Salmonella enterica
State the value with its unit after it.

Use the examples below as a reference point.
[[record]]
molecule = "CC1(C)S[C@@H]2[C@H](NC(=O)[C@H](N)c3ccccc3)C(=O)N2[C@H]1C(=O)O [AMPICILLIN]"
reported_value = "125 µg/mL"

[[record]]
molecule = "NC[C@H]1O[C@H](O[C@H]2[C@H](O)[C@@H](O[C@H]3O[C@H](CO)[C@@H](O)[C@H](N)[C@H]3O)[C@H](N)C[C@@H]2N)[C@H](O)[C@@H](O)[C@@H]1O [KANAMYCIN]"
reported_value = "15.6 µg/mL"

[[record]]
molecule = "O=C(CC(c1ccccc1)S(=O)(=O)c1ccccc1)c1ccc(Br)cc1 (centres undefined)"
reported_value = "250 µg/mL"


Now take the following molecule into account.
Exercise: Please list MIC recorded for the molecule O=C(CC(c1ccccc1)S(=O)(=O)c1ccccc1)CC(c1ccccc1)S(=O)(=O)c1ccccc1 (centres undefined)
Key: 250 µg/mL

---

# Tested on: Staphylococcus aureus
# run_description: Antimicrobial activity against Staphylococcus aureus after 12 to 18 hrs by micro-well dilution method
# Type: functional
Could you please report measured MIC for the items listed next?
Answers are plain numbers, in µg/mL.

[[record]]
molecule = "O=C(CC(c1ccccc1)S(=O)(=O)c1ccccc1)c1ccc(Br)cc1 (stereo not drawn)"
metric_name = "MIC"
reported_value = 125

[[record]]
molecule = "O=C(CC(c1ccc(Cl)cc1)S(=O)(=O)c1ccccc1)c1ccc(Cl)cc1 (stereo not drawn)"
metric_name = "MIC"
reported_value = 250

[[record]]
molecule = "COc1ccc(C(CC(=O)c2ccc(Br)cc2)S(=O)(=O)c2ccccc2)cc1OC (stereo not drawn)"
metric_name = "MIC"
reported_value = 62.5


Record MIC for all entries; do not skip any.
1. Cc1ccc(C(CC(=O)CC(c2ccc(C)cc2)S(=O)(=O)c2ccccc2)S(=O)(=O)c2ccccc2)cc1 (stereo not drawn)
2. O=C(CC(c1cccc([N+](=O)[O-])c1)S(=O)(=O)c1ccccc1)c1ccc(Cl)cc1 (stereo not drawn)
3. O=C(CC(c1ccccc1)S(=O)(=O)c1ccccc1)c1ccccc1 (stereo not drawn)
4. COc1ccc(C(CC(=O)CC(c2ccc(OC)cc2)S(=O)(=O)c2ccccc2)S(=O)(=O)c2ccccc2)cc1 (stereo not drawn)
5. O=C(CC(c1ccc(Cl)cc1)S(=O)(=O)c1ccccc1)CC(c1ccc(Cl)cc1)S(=O)(=O)c1ccccc1 (stereo not drawn)
6. CC1(C)S[C@@H]2[C@H](NC(=O)[C@H](N)c3ccccc3)C(=O)N2[C@H]1C(=O)O
7. O=C(CC(c1ccc(Cl)cc1)S(=O)(=O)c1ccccc1)c1ccccc1 (stereo not drawn)
8. O=C(CC(c1ccccc1)S(=O)(=O)c1ccccc1)CC(c1ccccc1)S(=O)(=O)c1ccccc1 (stereo not drawn)

Key:
1. 62.5
2. 125
3. 62.5
4. 250
5. 250
6. 500
7. 125
8. 62.5

Record MIC for all entries; do not skip any.
1. COc1cc(C(CC(=O)c2ccc(Br)cc2)S(=O)(=O)c2ccccc2)cc(OC)c1OC (stereo not drawn)
2. NC[C@H]1O[C@H](O[C@H]2[C@H](O)[C@@H](O[C@H]3O[C@H](CO)[C@@H](O)[C@H](N)[C@H]3O)[C@H](N)C[C@@H]2N)[C@H](O)[C@@H](O)[C@@H]1O

Key:
125
500

---

# Test system: Salmonella typhimurium
# run_description: Antimicrobial activity against Salmonella typhimurium after 12 to 18 hrs by micro-well dilution method
# Assay type: functional, Salmonella enterica subsp. enterica serovar Typhimurium
# test_settings: Salmonella enterica
metric_name: MIC (µg/mL)
Answers are plain numbers, in µg/mL.

[[record]]
compound = "COc1ccc(C(CC(=O)CC(c2ccc(OC)cc2)S(=O)(=O)c2ccccc2)S(=O)(=O)c2ccccc2)cc1 (centres undefined)"
scale_unit = "µg/mL"
reported_value = 62.5

[[record]]
compound = "O=C(CC(c1cccc([N+](=O)[O-])c1)S(=O)(=O)c1ccccc1)c1ccc(Cl)cc1 (centres undefined)"
scale_unit = "µg/mL"
reported_value = 62.5

[[record]]
compound = "COc1ccc(C(CC(=O)c2ccc(Br)cc2)S(=O)(=O)c2ccccc2)cc1OC (centres undefined)"
scale_unit = "µg/mL"
reported_value = 1.95

[[record]]
compound = "O=C(CC(c1ccc(Cl)cc1)S(=O)(=O)c1ccccc1)c1ccc(Cl)cc1 (centres undefined)"
scale_unit = "µg/mL"
reported_value = 125

[[record]]
compound = "COc1cc(C(CC(=O)c2ccc(Br)cc2)S(=O)(=O)c2ccccc2)cc(OC)c1OC (centres undefined)"
scale_unit = "µg/mL"
reported_value = 1.95

[[record]]
compound = "O=C(CC(c1ccc(Cl)cc1)S(=O)(=O)c1ccccc1)CC(c1ccc(Cl)cc1)S(=O)(=O)c1ccccc1 (centres undefined)"
scale_unit = "µg/mL"
reported_value = 15.6


Record MIC for all entries; do not skip any.
1. Cc1ccc(C(CC(=O)CC(c2ccc(C)cc2)S(=O)(=O)c2ccccc2)S(=O)(=O)c2ccccc2)cc1 (centres undefined)
2. O=C(CC(c1ccc(Cl)cc1)S(=O)(=O)c1ccccc1)c1ccccc1 (centres undefined)
3. O=C(CC(c1ccccc1)S(=O)(=O)c1ccccc1)c1ccccc1 (centres undefined)

Key:
1: 31.2; 2: 125; 3: 1.95
